Origin of the recorded values: patent US11964052B2

method_summary: Encapsulation efficiency of lipid nanoparticles, Quant-it Ribogreen RNA quantification assay
Assay type: physicochemical
measurement_conditions: LNP with mRNA
property_measured: Encapsulation Efficiency (%)

INSERT INTO measurements (compound, result_number) VALUES
  ('CCCCCCCCC(CCCCCCCC)CC(=O)OCC(CCCCN(CCO)C1CCC1)COC(=O)CCCCC (stereo not drawn)', 92.6),
  ('CCCCCCCCCCCCOCC(CN(CCO)CCCCCC(=O)OCC(CCCCCC)CCCCCCCC)OC(=O)CCCCC (stereo not drawn)', 86.1),
  ('CCCCCCCCCCCCOCC(CN(CCCCCC(=O)OCCCCCCCCCC)CCN(CCO)C1CCC1)OCCCCCC (stereo not drawn)', 83.7);

A: CCCCCCCCC(CCCCCC)CC(=O)OCC(CCCCN(CCCC)CCN(CCO)C1CCC1)COC(=O)CC(CCCCCC)CCCCCCCC (stereo not drawn)
B: CCCCCCCCCCCCOCC(CN(C)CCN(CCO)C1CCC1)OC(=O)CCCC (stereo not drawn)
I'm curious, which of these has a smaller Encapsulation Efficiency number: A or B ? # respond with the chosen item's label
B
(B: 36.4%, A: 92.39%)
